Data origin: PubChem BioAssay (NCATS)

assay: VSVG counterscreen qHTS to identify inhibitors of SARS-CoV-2 cell entry (AID 1645847); conditions: VSV-G pseudotyped particle entry, luciferase; series mostly up to 57.2 µM; also: potency is read from the fitted curve at half-maximal effect; nearly all actives have a fitted effect of over 65% in size
Records with an inconclusive call do not appear. The source made the active and inactive calls. Calls follow the shape of the full dose curve.
Reported Potency is given for each of the following compounds.
Measured Endpoint: Potency

Compound: C/C1=C/C[C@@H](/C(C)=C/c2csc(C)n2)OC(=O)C[C@H](O)C(C)(C)C(=O)[C@H](C)[C@@H](O)[C@@H](C)CCC1
Measured Endpoint: Potency
Observed Result: 60.7 nM (active)

Compound: CCN(CCCOc1ccc2c(Nc3cc(CC(=O)Nc4cccc(F)c4)[nH]n3)ncnc2c1)CCOP(=O)(O)O
Measured Endpoint: Potency
Observed Result: 76.4 nM (active)

Compound: COCCNCc1ccc(-c2cc3nccc(Oc4ccc(NC(=S)NC(=O)Cc5ccc(F)cc5)cc4F)c3s2)nc1
Measured Endpoint: Potency
Observed Result: 1360 nM (active)

Compound: CCc1cc(C(N)=O)ccc1-n1nc(C(C)C)c2c(-n3cnc(-c4cnn(C)c4)c3)ccnc21
Measured Endpoint: Potency
Observed Result: 3040 nM (active)

Compound: CCOc1nc2cccc(C(=O)OC(C)OC(=O)OC3CCCCC3)c2n1Cc1ccc(-c2ccccc2-c2nn[nH]n2)cc1 (stereo not given)
Measured Endpoint: Potency
Observed Result: 429 nM (active)

====

target: Thyrotropin receptor (Homo sapiens); experiment: qHTS Assay for Antagonists of the Thyroid Stimulating Hormone Receptor (AID 488980); details: TSHR-expressing cells, cAMP antagonist read-out; series mostly up to 57.5 µM;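 also: TSHR-transfected HEK293 cells stimulated with TSH at EC80 of 4 nM; 0% is about no effect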
The source made the active and inactive calls. The call rests on the fitted dose curve; in most records, active means well fitted curve in the direction sought with a large enough effect; inconclusive means small, poorly fitted or top-dose-only effect, or another doubt; inactive means no such curve, though single readings can be large or run the other way.
Measured Endpoint: outcome

Compound: CC(C)[C@@]1(NC(=O)[C@@H]2C[C@@H]3c4cccc5[nH]cc(c45)C[C@H]3N(C)C2)O[C@@]2(O)C3CCCN3C(=O)[C@H](Cc3ccccc3)N2C1=O (stereo not given in full)
Observed Result: inactive
//
Compound: C[C@H]1C2Cc3ccc(O)cc3[C@]1(C)CCN2CC1CC1
Observed Result: inactive
//
Compound: COC(=O)C(N)CCCN=C(N)N[N+](=O)[O-] (stereo not given)
Observed Result: inactive
//
Compound: CCc1c(C(=O)OC)ncc2[nH]c3cc(OC)c(OC)cc3c12
Observed Result: inactive
//
Compound: C[N+]1(C)C2CC(OC(=O)C(CO)c3ccccc3)CC1C1OC12 (stereo not given)
Observed Result: inactive
//
Compound: CCCN1CCCC(c2cccc(O)c2)C1 (stereo not given)
Observed Result: inactive
//
Compound: NC(Cn1ccc(=O)[nH]c1=O)C(=O)O (stereo not given)
Observed Result: inactive
//
Compound: CCCN1CCc2cc(O)cc3c2C1Cc1ccc(O)c(O)c1-3 (stereo not given)
Observed Result: inactive
//
Compound: CN1C[C@@H](CS(=O)(=O)N(C)C)C[C@@H]2c3cccc4c3c(cn4C)C[C@H]21
Observed Result: inactive
//
Compound: COc1ccc2c(c1O)-c1cccc3c1C(C2)N(C)CC3 (stereo not given)
Observed Result: inactive

====

biological target: Cytochrome P450 1A2 (Homo sapiens) (UniProt P05177); test: p450-cyp1a2 (AID 410); details: recombinant CYP1A2, luciferin-ME demethylation, luminescence; series mostly up to 25.6 µM
Sequence (P05177 whole entry, looked up): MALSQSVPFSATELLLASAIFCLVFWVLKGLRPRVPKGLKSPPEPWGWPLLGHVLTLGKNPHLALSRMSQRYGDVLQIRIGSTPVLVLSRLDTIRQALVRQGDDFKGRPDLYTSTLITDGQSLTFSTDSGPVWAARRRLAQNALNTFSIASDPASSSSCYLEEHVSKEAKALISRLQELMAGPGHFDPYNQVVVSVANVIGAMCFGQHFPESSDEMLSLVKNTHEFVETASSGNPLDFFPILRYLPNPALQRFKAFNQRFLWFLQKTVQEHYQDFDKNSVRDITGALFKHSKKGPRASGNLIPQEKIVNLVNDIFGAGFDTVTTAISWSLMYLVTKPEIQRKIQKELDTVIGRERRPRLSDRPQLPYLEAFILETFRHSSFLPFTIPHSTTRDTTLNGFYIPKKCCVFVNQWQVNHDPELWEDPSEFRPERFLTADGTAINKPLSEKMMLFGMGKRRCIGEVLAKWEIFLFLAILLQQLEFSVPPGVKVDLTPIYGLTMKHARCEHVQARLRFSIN
Results filed as inconclusive are left out. Activity calls are given as the source filed them. Calls follow the shape of the full dose curve.
Outcomes: active, inactive

Input Smiles: O=C(Nc1cccc(F)c1)N1CC[C@@]2(CCCN(C(=O)Oc3ccccc3)C2)C1
Class Assignment: active
//
Input Smiles: O=C(Oc1ccccc1)N1CCC2(CCCN(Cc3nccs3)C2)CC1
Class Assignment: inactive
//
Input Smiles: O=C(Nc1cccc(F)c1)N1CCCC2(CCN(C(=O)Oc3ccccc3)CC2)C1
Class Assignment: active
//
Input Smiles: COc1cc2c(cc1O)[C@H]1Cc3ccc(OC)c(O)c3CN1CC2
Class Assignment: active
//
Input Smiles: CC(C)CN1CCCC2(CCN(C(=O)c3ccncc3)CC2)C1
Class Assignment: active
//
Input Smiles: C[C@@H]1O[C@H](O[C@@H]2CC[C@@]3(C=O)[C@H]4CC[C@@]5(C)[C@@H](C6=CC(=O)OC6)CC[C@@]5(O)[C@@H]4CC[C@]3(O)C2)C[C@H](O)[C@@H]1O
Class Assignment: inactive
//
Input Smiles: CC[C@@H](CO)NC(=O)[C@H]1C=C2c3cccc4c3c(cn4C)C[C@H]2N(C)C1
Class Assignment: active
//
Input Smiles: O=C1NC(=S)NC(=O)C1=Cc1cccc2cc3ccccc3cc12
Class Assignment: active
//
Input Smiles: O=C(Oc1ccccc1)N1CCC2(CCN(Cc3nccs3)CC2)CC1
Class Assignment: inactive
//
Input Smiles: O=C(c1csnn1)N1CCC2(CC1)CN(Cc1ccncc1)C2
Class Assignment: active
//
Input Smiles: CC(C)CN1CC[C@@]2(CCCN(C(=O)Oc3ccccc3)C2)C1
Class Assignment: active
//
Input Smiles: O=C(Oc1ccccc1)N1CCC2(CCN(Cc3ccccc3)CC2)CC1
Class Assignment: inactive
//
Input Smiles: CN(C)C(=O)Oc1cc(OC(=O)N(C)C)cc([C@@H](O)CNC(C)(C)C)c1
Class Assignment: inactive
//
Input Smiles: c1cnc(N2CC[C@@]3(CCCNC3)C2)nc1
Class Assignment: active
//
Input Smiles: CN1CCc2cc3c(cc2[C@@H]1[C@@H]1OC(=O)c2c1ccc1c2OCO1)OCO3
Class Assignment: active
//
Input Smiles: N#Cc1cccc(NC(=O)N2CC[C@@]3(CCCN(C(=O)Oc4ccccc4)C3)C2)c1
Class Assignment: inactive
//
Input Smiles: CN1[C@@H]2CCC[C@H]1CC(=O)C2
Class Assignment: inactive
//
Input Smiles: O=C(Nc1ccccc1)N1CCCC2(CCN(C(=O)Oc3ccccc3)CC2)C1
Class Assignment: active
//
Input Smiles: c1cnc(N2CCC3(CCNCC3)CC2)nc1
Class Assignment: inactive
//
Input Smiles: COC(=O)N1CCC2(CCN(CC(C)C)CC2)CC1
Class Assignment: inactive
//
Input Smiles: c1csc(CN2CC3(CCNCC3)C2)n1
Class Assignment: inactive
//
Input Smiles: CC(C)[C@@]1(NC(=O)[C@@H]2C[C@H]3c4cccc5[nH]cc(c45)C[C@@H]3N(C)C2)O[C@]2(O)[C@H]3CCCN3C(=O)[C@H](Cc3ccccc3)N2C1=O
Class Assignment: inactive
//
Input Smiles: COc1cc2c(cc1O)C[C@H]1c3c(cc(OC)c(O)c3-2)CCN1C
Class Assignment: active
//
Input Smiles: c1ccc(N2CCC3(CCNCC3)CC2)nc1
Class Assignment: inactive
//
Input Smiles: C=C1C/C(=C\C)C(=O)O[C@@H]2CCN3CC=C(COC(=O)[C@@]1(C)O)[C@H]23
Class Assignment: inactive
//
Input Smiles: CCCN(CCC)C(=O)Cc1c(-c2ccc(Cl)cc2)nc2c(Cl)cc(Cl)cn12
Class Assignment: inactive
//
Input Smiles: CC[C@@H]1[C@@H]2C[C@H]3[C@H]4N(C)c5ccccc5[C@@]45C[C@@H]([C@@H]2[C@@H]5O)N3[C@H]1O
Class Assignment: inactive
//
Input Smiles: COc1ccc(C[C@H]2c3cc(OC)c(OC)cc3CCN2C)cc1OC
Class Assignment: inactive
//
Input Smiles: C[C@H](NC(C)(C)C)C(=O)c1cccc(Cl)c1
Class Assignment: inactive

====

target: Mitogen-activated protein kinase 10 (Mus musculus) (UniProt Q61831); test: JNK3 AlphaScreen Assay (AID 530); settings: JNK3 lysate, c-Jun phosphorylation; series mostly up to 57.1 µM;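 also: kinase came from lysate of stimulated human HepG2 cells; signal reports phosphorylation of biotinylated GST-cJun 1-79 at Ser73 with 10 µM ATP; % is scaled to controls: 0 for no effect and ±100 for the full control effect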
Results filed as inconclusive are left out. Calls of active or inactive are those of the source. The call rests on the fitted dose curve; in most records, active means well fitted curve in either direction with a large enough effect (not every such curve was filed as active); inconclusive means small, poorly fitted or top-dose-only effect, or another doubt; inactive means flat fitted curve, though single readings scatter.
Measured Endpoint: activity change, negative = inhibition

Molecule: C[C@@]12CCC(=O)C=C1C=C[C@H]1[C@H]3CC[C@](O)(CCC(=O)O)[C@]3(C)CC[C@@H]12
Measured Endpoint: activity change, negative = inhibition
Observed Result: inactive
//
Molecule: Cc1nnc2ccc(-c3cccc(C(F)(F)F)c3)nn12
Measured Endpoint: activity change, negative = inhibition
Observed Result: inactive
//
Molecule: C=CC1CC=CCC1 (stereo not drawn)
Measured Endpoint: activity change, negative = inhibition
Observed Result: inactive

====

Reported caspase-3 activation is given for each of the following compounds.
assay: Cellular Toxicity (caspase-3) N2a (AID 665); conditions: N2a cells, luminescence, normalized: DMSO 0%, 10 µM staurosporine 100%; at 92.2 µM (top of the series);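 also: compound exposure lasted 16 h at 37 °C before readout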
Measured Endpoint: caspase-3 activation (%)

Input Smiles: ClCBr
Measurement Units: %
Observed Result: -2

Input Smiles: Brc1ccccc1
Measurement Units: %
Observed Result: 0.903

Input Smiles: c1ccc(N=Nc2ccccc2)cc1
Measurement Units: %
Observed Result: -2.4

Input Smiles: C/C=C/c1ccc2c(c1)OCO2
Measurement Units: %
Observed Result: 0.0142

Input Smiles: O=[N+]([O-])c1cccc2ccccc12
Measurement Units: %
Observed Result: -0.0738

Input Smiles: C=CCc1ccc(OC)cc1
Measurement Units: %
Observed Result: 0.258

Input Smiles: CC(C)(c1ccccc1)c1ccc(O)cc1
Measurement Units: %
Observed Result: 1.43

Input Smiles: CCNc1nc(Cl)nc(NC(C)C)n1
Measurement Units: %
Observed Result: -0.492

Input Smiles: CCSC(=O)Cl
Measurement Units: %
Observed Result: -2.14

Input Smiles: Cc1ccc([N+](=O)[O-])cc1C
Measurement Units: %
Observed Result: -3.15

Input Smiles: CCOP(=S)(OCC)SCSC(C)(C)C
Measurement Units: %
Observed Result: -3.31

Input Smiles: Nc1ccc(Br)cc1
Measurement Units: %
Observed Result: 0.277

Input Smiles: CN=C=S
Measurement Units: %
Observed Result: 2.61

Input Smiles: O=C1C(Cl)=C(Cl)C(=O)C(Cl)=C1Cl
Measurement Units: %
Observed Result: -13.5

Input Smiles: COC1=CC(=O)O[C@@H](/C=C/c2ccc3c(c2)OCO3)C1
Measurement Units: %
Observed Result: -17.2
